- Measured on: feline FcRn complex (FcRn-α subunit and β-microglobulin) (feline)
- Experiment summary: SPR (Biacore), FcRn on SA chip, pH 7.4
Readout kind: Kd (nM)
Numbers only; they are read as nM.

Suppose we examine the binder feline IgG1a mutant ID No. 248: S428M, D312P (antibody, part only; not given: Variable domains, not shown: another chain or arm of the molecule) constant: ASTTAPSVFPLAPSCGTTSGATVALACLVLGYFPEPVTVSWNSGALTSGVHTFPAVLQASGLYSLSSMVTVPSSRWLSDTFTCNVAHPPSNTKVDKTVRKTDHPPGPKPCDCPKCPPPEMLGGPSIFIFPPKPKDTLSISRTPEVTCLVVDLGPDDSDVQITWFVDNTQVYTAKTSPREEQFNSTYRVVSVLPILHQPWLKGKEFKCKVNSKSLPSPIERTISKAKGQPHEPQVYVLPPAQEELSRNKVSVTCLIKSFHPPDIAVEWEITGQPEPENNYRTTPPQLDSDGTYFVYSKLSVDRSHWQRGNTYTCSVMHEALHSHHTQKSLTQSPGK ; what Kd value has been reported? 23.7
